Test system: HL-60(TB) leukemia
protocol text: NCI-60 one-dose screen, 48 h (100 = growth as untreated, 0 = no growth, -100 = all killed)
particulars: 10 µM unless noted
About 83,000 compounds went through this panel and 20% of them were active in at least one assay; those are over-represented in the sample as a whole.
readout kind: growth (%)
# value in %; strip the unit string

For orientation, consider the following solved cases.
C#CCCCN(CCNc1ccnc2cc(Cl)ccc12)C(=O)CCC(=O)O[C@@H]1O[C@@H]2OC3(C)CC[C@H]4[C@H](C)CC[C@@H]([C@H]1C)[C@@]24OO3    -26.3
COc1cccc(-c2ccc(/C=N/NC(=O)c3[nH]c4ccc(Br)cc4c3-c3ccccc3)o2)c1    -38.4
COc1ccc(C2N(c3ccc(Br)cc3)N=C(C(C)=O)N2[C@H]2[C@H](OC(C)=O)O[C@H](COC(C)=O)[C@@H](OC(C)=O)[C@@H]2OC(C)=O)cc1 (some centres not stated)    23.7
Cc1ccc(C(=O)Nc2cc(-c3ccncc3)cc(C(F)(F)F)c2)cc1C#Cc1cnc2cccnn12    16.8
Cc1ccc([C@H]2C(C(=O)c3ccc(Cl)cc3)C3(N[C@@H]2c2ccccc2)C(=O)Nc2ccc(Br)cc23)cc1 (some centres not stated)    35.1
Cc1ccc(Cl)cc1NC(=O)N/C(N)=N/c1nc2ccccc2s1    -44.9

[in] Which value of growth has been reported for C=C1CCC2C3(C)COC(c4cccc(F)c4)OC3CCC2(C)C1C/C=C1/C(=O)OCC1O (configuration not stated) in the records?
[out] 4.43

====

System: CCRF-CEM leukemia
protocol text: NCI-60 one-dose screen, 48 h (100 = growth as untreated, 0 = no growth, -100 = all killed)
particulars: 10 µM
Compounds without any hit were thinned out: in the full panel of roughly 83,000, 20% have a hit.
Listed below: growth values for each entry.
# value in %; strip the unit string

COc1ccc(/C=C/C(=O)c2nc3ccccc3n2Cc2ccc(Br)cc2)cc1    18.7

Attention now shifts to the item below.
[in] Notebook entry, CCRF-CEM leukemia assay: growth of O=C(/C=C/c1cccc(Br)c1)c1nc2ccccc2n1Cc1ccc(F)cc1 = ?
[out] -18.8

====

System: TK-10 renal
protocol text: NCI-60 one-dose screen, 48 h
particulars: 10 µM
This is part of a sample that, as a whole, favours compounds with a hit. Of some 83,000 tested, about 20% had one in any assay. Active and inactive are the calls of the source. How the source made its calls: active means growth percent below 10; inactive means the rest.
Your response should consist of one outcome taken from T = active, F = inactive

Use these answered entries as a reference point.
C#CC[Se]C(=O)c1ccc(C(=O)[Se]CC#C)s1    F
CC12OOC(C)(OO1)C2CCC(=O)NCCNc1ccnc2cc(Cl)ccc12 (stereo not given)    F
O=C(/C=C/c1ccco1)c1nc2ccccc2n1Cc1ccc(Br)cc1    F
O=C(/C=C/c1ccc(Cl)cc1)c1nc2ccccc2n1Cc1ccc(F)cc1    F

[in] Fill in: this test's call for CCOP(=O)(CC(F)(F)C(F)(F)F)OCC is ___
[out] F

[in] Fill in: this test's call for O=C(NC([Se])=NC1CCCCC1)c1ccc2c(c1)OCO2 is ___
[out] F

====

System: MDA-MB-468 breast
protocol text: NCI-60 one-dose screen, 48 h
particulars: 10 µM unless noted
Description: Growth inhibition of the MDA-MB-468 human Breast tumor cell line is measured as a screen for anti-cancer activity. Cells are grown in 96 well plates and exposed to the test compound for 48 hours. Compounds are tested at a single concentration, which is 10^-5 M for most compounds. The reported endpoint is percent growth (GI% or GIPRCNT), where numbers from 0 - 100% represent growth inhibition, and numbers from -100% - 0 represent cell death. […]
Compounds without any hit were thinned out: in the full panel of roughly 83,000, 20% have a hit. Activity calls are given as the source filed them. How the source made its calls: active means growth percent below 10; inactive means the rest.
Your response should consist of one outcome taken from true (1) = active, false (0) = inactive

C[S+]1C=Cc2ccccc2C1c1ccc(Cl)cc1 (stereo not drawn)    true (1)
Cc1ccc(S(=O)(=O)C(Cl)(Cl)Cl)cc1    false (0)
CC1=C2[C@@H](CC1)[C@]1(C)O[C@@](C(C)C)(C[C@H]1O)[C@H]2OC(=O)C1CC1c1ccccc1 (stereo partly drawn)    false (0)
CCOc1cc(/C=N\Nc2nnc(C)n2N)c(C)cc1N(CCCl)CCCl    true (1)
Cc1cc(C)c(CBr)c(C)c1    false (0)

[in] Fill in: this test's call for CC(=O)O[C@H]1CCC2C3CCC4=C/C(=N/O)CCC4(C)C3CCC21C (stereo partly drawn) is ___
[out] false (0)

[in] Fill in: this test's call for COC(=O)[C@@H](C)C[C@H](Cc1ccccc1)NC(=O)c1cccc([C@@H](C[C@H](C(C)C)N(C)C(=O)[C@@H](NC(=O)[C@H]2CCCCN2C)C(C)C)OC(C)=O)n1 is ___
[out] false (0)

[in] Fill in: this test's call for COC(=O)[C@@H](C)C[C@H](Cc1ccccc1)NC(=O)c1csc([C@@H](C[C@H](C(C)C)N(C)C(=O)[C@@H](NC(=O)CN(C)C)C2CC2)OC(C)=O)n1 is ___
[out] true (1)

[in] Fill in: this test's call for C/C(=C\c1ccn(-c2ccc(N)c(C(F)(F)F)c2)n1)[C@@H]1C[C@@H]2O[C@]2(C)CCC[C@H](C)[C@H](O)[C@@H](C)C(=O)C(C)(C)[C@@H](O)CC(=O)O1 is ___
[out] true (1)

[in] Fill in: this test's call for CCCCCN(CCCCC)CC(O)c1cc(Cl)ccc1OC (stereo not drawn) is ___
[out] false (0)

[in] Fill in: this test's call for Clc1cc(N2CC2)nc(N2CC2)n1 is ___
[out] true (1)

[in] Fill in: this test's call for O=NN(c1ccccc1)c1ccccc1 is ___
[out] false (0)

[in] Fill in: this test's call for C[C@@]12CCCc3coc(c31)C(=O)c1cc3c(cc12)C(=O)C1=C(NCCS1(=O)=O)C3=O is ___
[out] true (1)
